- Test system: 72 kDa type IV collagenase (Homo sapiens)
- Sequence (P08253 whole entry): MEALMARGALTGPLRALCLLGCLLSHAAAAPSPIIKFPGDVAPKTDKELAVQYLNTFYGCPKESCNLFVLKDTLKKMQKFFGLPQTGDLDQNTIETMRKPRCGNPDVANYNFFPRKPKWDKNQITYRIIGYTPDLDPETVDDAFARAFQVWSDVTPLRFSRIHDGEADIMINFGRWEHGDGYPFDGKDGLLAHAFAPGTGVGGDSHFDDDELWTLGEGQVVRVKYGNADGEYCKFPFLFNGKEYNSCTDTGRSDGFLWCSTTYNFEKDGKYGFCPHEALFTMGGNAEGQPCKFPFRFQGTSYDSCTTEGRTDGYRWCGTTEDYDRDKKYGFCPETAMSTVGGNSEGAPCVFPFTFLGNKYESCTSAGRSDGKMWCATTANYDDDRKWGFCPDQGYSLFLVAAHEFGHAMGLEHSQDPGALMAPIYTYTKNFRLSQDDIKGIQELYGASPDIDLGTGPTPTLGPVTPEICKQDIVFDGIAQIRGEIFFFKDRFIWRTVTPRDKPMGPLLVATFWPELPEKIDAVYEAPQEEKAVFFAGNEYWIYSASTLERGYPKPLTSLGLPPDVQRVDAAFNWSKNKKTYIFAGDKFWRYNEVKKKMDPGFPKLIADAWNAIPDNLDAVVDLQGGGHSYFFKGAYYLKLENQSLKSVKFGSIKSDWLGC
- Test name: Inhibition of MMP2 (unknown origin)
So I've got a bunch of compounds here, and I need their pIC50 values.
Units for pIC50: none; it is -log10 of a concentration expressed in mol/L.

Incoming: Give its pIC50 value. Item: CNC(=O)[C@@H](NC(=O)c1ccc(-c2ccc(OCc3ccn[nH]3)cn2)o1)C1CCCCC1
Outgoing: 7.44

Incoming: Give its pIC50 value. Item: Cc1cc(=O)c(O)c(C(=O)NCc2ccc(-c3ccccc3)cc2)o1
Outgoing: 6.21

Incoming: Give its pIC50 value. Item: N#Cc1ccc(Oc2ccc(S(=O)(=O)N3CCc4c([nH]c5ccccc45)C3C(=O)NO)cc2)cc1 (stereo not given)
Outgoing: 6.82

Incoming: Give its pIC50 value. Item: Cc1cc(=O)c(O)c(C(=O)NCc2ccc(-c3ccc(C#N)cc3)cc2)o1
Outgoing: 5.03

Incoming: Give its pIC50 value. Item: O=C(NCc1ccco1)Nc1c[nH]c2cccnc2c1=O
Outgoing: 5.30
